Listed next: entries and their corresponding growth.
- System: HT29 colon
- Assay Comment: NCI-60 one-dose screen, 48 h (100 = growth as untreated, 0 = no growth, -100 = all killed)
- Measurement Parameters: 10 µM unless noted
The panel holds about 83,000 compounds, 20% with a hit somewhere; the sample as a whole holds those more often. Calls of active or inactive are those of the source. The calls were made as follows: active = growth percent below 10; inactive = the rest.

Query: State its growth for this molecule: `C=C1C(=O)O[C@H]2[C@H]1CC/C(COC(=O)/C=C/C(=O)OC/C1=C/CC[C@@]3(C)O[C@H]3[C@H]3OC(=O)C(=C)[C@@H]3CC1)=C\CC[C@@]1(C)O[C@@H]21`
Result: 8.88% (active)

Query: State its growth for this molecule: `CCOC(=O)c1cc(C(=O)c2cc(OC)c(OC)c(OC)c2)n2ccccc12`
Result: 1.16% (active)

Query: State its growth for this molecule: `O=C1Nc2c(C(=O)O)cccc2/C1=N/c1n[nH]c(=S)s1`
Result: 105% (inactive)

Query: State its growth for this molecule: C=C1CC[C@@H]2[C@](C)(COC(C)=O)[C@H](OC(C)=O)CC[C@@]2(C)[C@@H]1CC(Nc1ccc(S(=O)(=O)NC(C)=O)cc1)C1=CCOC1=O (stereo partly drawn)
Result: -69.9% (active)

Query: State its growth for this molecule: `O=C(Nc1ccc(Cl)cc1)Oc1c(Cl)c(Cl)c(Cl)c(Cl)c1Cl`
Result: 96.1% (inactive)
